tested on: EPHB1; conditions: concentration: 1 μM, replicates: in singlicate; n = 1;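 note: KINOMEscan kinase panel screen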
I'd be grateful if you could share measured %Inh for these entries.
Respond numerically; units are % and should not be typed.

Quick check: %Inh of CCc1ccc(-c2ccc3c(c2)-c2c(cnn2C)S(=O)(=O)N3C)cc1 ?
0

Quick check: %Inh of O=C(NC1CCN(c2ccnc(Nc3ccc(F)cc3)n2)C1)c1cc2ccccc2s1 (stereo not shown) ?
9

Quick check: %Inh of CN1CCN(CCCNc2nccc(-c3c(-c4ccc(F)cc4)nn4cc(C(F)(F)F)ccc34)n2)CC1 ?
13

Quick check: %Inh of O=C(O)C(F)(F)F.O=C(O)C(F)(F)F.O=c1[nH]ccc2nc(N[C@@H]3CCCNC3)nc(Nc3ccc(S(=O)(=O)N4CCOCC4)cc3)c12 ?
31

* * *

test system: RSK3(Kin.Dom.2-C-terminal); construct: gene RPS6KA2; details: concentration: 1 μM, replicates: in singlicate; n = 1
I'd be grateful if you could share measured %Inh for these entries.
Respond numerically; units are % and should not be typed.

Notebook entry, RSK3(Kin.Dom.2-C-terminal) assay: %Inh of Fc1ccc(-c2ncn(C3CCNCC3)c2-c2ccnc(Oc3ccc(-c4ccccc4)cc3)n2)cc1 = ?
0

Notebook entry, RSK3(Kin.Dom.2-C-terminal) assay: %Inh of c1ccc(-c2cnc3nccnn23)cc1 = ?
0

Notebook entry, RSK3(Kin.Dom.2-C-terminal) assay: %Inh of COC(=O)Nc1nc2ccc(Oc3ccc(NC(=O)Nc4cc(C(F)(F)F)ccc4F)cc3)cc2n1C.Cl = ?
0

Notebook entry, RSK3(Kin.Dom.2-C-terminal) assay: %Inh of Cn1cc(-c2ccc3c(c2)CCN3C(=O)Cc2cccc(Cl)c2)c2c(N)ncnc21 = ?
0

Notebook entry, RSK3(Kin.Dom.2-C-terminal) assay: %Inh of Clc1ccc(-c2nn3ncccc3c2-c2ccnc(Nc3ccc4c(c3)OCCO4)n2)cc1 = ?
0

Notebook entry, RSK3(Kin.Dom.2-C-terminal) assay: %Inh of O=C(O)C(F)(F)F.O=C(O)C(F)(F)F.O=c1[nH]ccc2nc(N[C@@H]3CCCNC3)nc(Nc3ccc(S(=O)(=O)N4CCOCC4)cc3)c12 = ?
90.2

Notebook entry, RSK3(Kin.Dom.2-C-terminal) assay: %Inh of O=C(Nc1cccc(-c2nn3ncccc3c2-c2ccnc(Nc3ccccc3)n2)c1)c1c(F)cccc1F = ?
17

Notebook entry, RSK3(Kin.Dom.2-C-terminal) assay: %Inh of O=c1[nH]cc(-c2ccc(N3CCOCC3)cc2)c2sc(-c3cn[nH]c3)cc12 = ?
22

* * *

test system: BLK; details: concentration: 1 μM, replicates: in singlicate; n = 1
recorded_metric: %Inh (%)
Respond numerically; units are % and should not be typed.

Notebook entry, BLK assay: %Inh of O=C(Nc1cccc(-c2nn3ccccc3c2-c2ccnc(Nc3cccc(C(F)(F)F)c3)n2)c1)c1c(F)cccc1F [GSK292658] = ?
94

Notebook entry, BLK assay: %Inh of Nc1ncc(-c2cccnc2)c2scc(-c3ccc4c(c3)CCN4C(=O)Cc3ccccc3)c12 [GSK683281] = ?
82

Notebook entry, BLK assay: %Inh of c1ccc(-c2cnc3nccnn23)cc1 [AH20685] = ?
37

Notebook entry, BLK assay: %Inh of Cc1ccc(F)c(C(=O)Nc2cccc(-c3nn4ccccc4c3-c3ccnc(Nc4cccc(F)c4)n3)c2)c1F [GSK361061] = ?
91.3
